assay target: T1, hmm.hTfRC (REGN2431), human transferrin receptor extracellular domain with hexahistidine-myc-myc tag (human, UniProt P02786 89-760)
T1 construct: Monomeric recombinant protein, 79210 g/mol; also called hTFR-mmh; His-myc-myc-hTFRC ecto
T1 sequence (P02786 other isoform, or with tags, fused parts or gaps): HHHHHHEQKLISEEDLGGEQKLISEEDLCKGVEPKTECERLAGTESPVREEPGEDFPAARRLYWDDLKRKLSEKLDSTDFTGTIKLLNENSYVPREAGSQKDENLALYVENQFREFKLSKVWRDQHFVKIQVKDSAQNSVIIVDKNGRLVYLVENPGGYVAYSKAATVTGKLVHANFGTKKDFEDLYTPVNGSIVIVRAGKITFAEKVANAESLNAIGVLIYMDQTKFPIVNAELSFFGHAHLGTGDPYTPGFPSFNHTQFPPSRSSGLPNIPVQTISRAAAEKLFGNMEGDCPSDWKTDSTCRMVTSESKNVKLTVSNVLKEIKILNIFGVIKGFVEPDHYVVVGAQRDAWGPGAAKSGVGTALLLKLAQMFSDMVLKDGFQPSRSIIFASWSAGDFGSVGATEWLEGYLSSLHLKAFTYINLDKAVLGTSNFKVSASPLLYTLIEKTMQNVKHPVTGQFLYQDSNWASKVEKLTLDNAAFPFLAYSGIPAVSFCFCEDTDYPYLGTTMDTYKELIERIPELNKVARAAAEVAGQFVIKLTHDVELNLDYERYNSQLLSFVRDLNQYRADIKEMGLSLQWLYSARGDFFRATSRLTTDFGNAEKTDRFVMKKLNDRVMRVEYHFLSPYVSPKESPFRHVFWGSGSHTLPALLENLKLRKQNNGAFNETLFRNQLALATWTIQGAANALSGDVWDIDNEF
test name: SPR (Biacore), mAb captured on anti-human Fc, 100 nM hTFR-mmh, 25 C
Description: Biacore binding kinetics assays were conducted for the interaction of 32 anti-human TfR IgG1 monoclonal antibodies from CHO supernatants with TfR reagents at 25° C. Equilibrium dissociation constants (KD) for the interaction of anti-TfR monoclonal antibodies with human and fascicularis monkey TfR ecto domain recombinant proteins were determined using a real-time surface plasmon resonance (SPR) based Biacore S200 biosensor. […]
assay readout: t½ (h)
Write it as a number; the unit h goes unstated.

Challenge: Give the measured t½ for 12799B (antibody, human IgG1, kappa, V domains shown, Tested as bivalent human IgG1 from CHO primary supernatant; also called H1H12799B; REGN17508) VH: QITLKESGPTLVKPTQTLTLTCTFSGFSLSTSGVGVVWIRQPPGKALEWLALIYWNDHKRYSPSLGSRLTITKDTSKNQVVLTMTNMDPVDTATYYCAHYSGSYSYYYYGLDVWGQGTTVTVSS VL: DIQMTQSPSSVSASVGDRVTITCRASQGIASWLAWYQQKPGKAPELLIYAASSLQGGVPSRFSGSGSGTDFTLTISSLQPEDFAIYYCQQANYFPWTFGQGTKVEIKR
Response given: 2.91

Challenge: Give the measured t½ for 69331 (antibody, human IgG1, kappa, V domains shown, Tested as bivalent human IgG1 from CHO primary supernatant) VH: QVQLVESGGGVVQPGRSLRLSCIASGFTFSVYGIHWVRQAPGKGLEWMAVISHDGNIKHYADSVKGRFTISRDNSKNTLYLQINSLRTEDTAVYYCAKDTWNSLDTFDIWGQGTMVTVSS VL: DIQLTQSPSSLSASVGDRVTITCWASQGISSYLAWYQQKPGKAPKLLIYAASTLQSGVPSRFSGSGSGTEFTLTISSLQPEDFATYYCQQLNSYPLTFGGGTKVEIKR
Response given: 0.0417

Challenge: Give the measured t½ for 69329 (antibody, human IgG1, kappa, V domains shown, Tested as bivalent human IgG1 from CHO primary supernatant) VH: EVQLVESGGGLVQPGGSLRLSCAASGFTFSNYWMTWVRQAPGKGLEWVANIKEDGSEKDYVDSVKGRFTISRDNAKNSLYLQMNSLRGEDTAVYYCARDGEQLVDYYYYYVMDVWGQGTTVTVSS VL: DIQMTQSPSSVSASVGDRVTITCRASQGISSWLAWYQQKPGKAPKLLIYAASSLQSGVPSRFSGSGSGTDFTLTISSLQPEDFATYYCQKANSFPYTFGQGTKLEIKR
Response given: 1.04

Challenge: Give the measured t½ for 12812B (antibody, human IgG1, kappa, V domains shown, Tested as bivalent human IgG1 from CHO primary supernatant) VH: QVQLVQSGAEVKKPGSSVRVSCKASRGTFSSYAISWVRQAPGQGLEWMGGIIPIFGTANYAQKFLARVTITADESTSTAYMELSSLRSEDTAVYYCAREKGWNYFDYWGQGTLVTVSS VL: DIQMTQSPPSVSASVGDRVTITCRASQGISSWLAWYQQKPGKAPKLLIYAASSLQSGVPSRFSGSGSGTDFTLTISSLQPEDFATYYCQQANSFPRTFGQGTKVEIKR
Response given: 0.147

Challenge: Give the measured t½ for 69263 (antibody, human IgG1, kappa, V domains shown, Tested as bivalent human IgG1 from CHO primary supernatant) VH: EVQLVESGGGLVQPGRSLRLSCAVSGFTFDDYAMHWVRQAPGKGLEWVSGISWNSGTRGYADSVKGRFTISRDNAKNSLYLQMNSLRGEDTALYYCVKDITISPNYYGMDVWGQGTTVTVSS VL: DIQMTQSPSSLSASVGDRVTITCRASQDISHYSAWYQQKPGKLPNLLIYAASTLQSGVPSRFSGSGSGTDFSLTTSSLQPEDVATYYCQKYNSVPLTFGGGTKVEIKR
Response given: 0.167

Challenge: Give the measured t½ for 12801B (antibody, human IgG1, kappa, V domains shown, Tested as bivalent human IgG1 from CHO primary supernatant) VH: EVQLLESGGALVQPGGSLRLSCAASGFTFTSYAMHWVRQAPGKGLEWVSSIRGSGGGTYSADSVKGRFTISRDNSRDTLYLQMNSVRAEDTAVYYCARSHDYGAFDFFDYWGQGTLVTVSS VL: DIQMTQSPSSLSASVGDRVTITCRASQGIRTDLGWYQQKPGKAPKRLIYAASSLQSGVPSRFSGSGSGTEFTLTISSLRPEDFATFYCLQYNSYPLTFGGGTKVEIKR
Response given: 4.6

Challenge: Give the measured t½ for 69340 (antibody, human IgG1, kappa, V domains shown, Tested as bivalent human IgG1 from CHO primary supernatant) VH: EVQLVESGGGLVQPGRSLRLSCAASGFTFDDKAMHWVRQVPGKGLEWISGISWNSGTIGYADSVKGRFIISRDNAKNSLYLQMNSLRAEDTALYYCAKDGDTSGWYWYGLDVWGQGTTVTVSS VL: EIVLTQSPATLSLSPGERATLSCRASQSVSSYLAWYQQKPGQAPRLLIHDVSNRATGIPARFSGSGSGTDFTLTISSLEPEDFVVYYCQQRSDWPITFGQGTRLEIKR
Response given: 3.09
